# Tested on: P31-FUJ (Acute Myeloid Leukemia)
# Method notes: combination Emax (second highest fraction inhibited in the dose matrix, 72 h); higher = more inhibition; extreme values may be limits of the assay
Property: combination Emax

[[record]]
compound = "N#Cc1cnc(Nc2cc(NC[C@H]3CNCCO3)c(C(F)(F)F)cn2)cn1 [SRA737] + Nc1ccn([C@@H]2O[C@H](CO)[C@@H](O)C2(F)F)c(=O)n1 [Gemcitabine] (first compound max 10 µM, 7x7, partner max 0.3 µM)"
assay_result = 1

[[record]]
compound = "CN(CCO)CC[C@H](CSc1ccccc1)Nc1ccc(S(=O)(=O)NC(=O)c2ccc(N3CCC([C@@H](O)c4ccccc4-c4ccc(Cl)cc4)CC3)cc2)cc1S(=O)(=O)C(F)(F)F [AZD4320] + C[C@@H](Nc1cc(F)cc(F)c1)c1cc(C(=O)N(C)C)cc2c(=O)cc(N3CCOCC3)oc12 [AZD8186] (first compound max 1 µM, 7x7, partner max 3 µM)"
assay_result = 0.543

[[record]]
compound = "CN(CCO)CC[C@H](CSc1ccccc1)Nc1ccc(S(=O)(=O)NC(=O)c2ccc(N3CCC([C@@H](O)c4ccccc4-c4ccc(Cl)cc4)CC3)cc2)cc1S(=O)(=O)C(F)(F)F [AZD4320] + CC(=O)O[C@H]1C(=O)[C@@]2(C)[C@H]([C@H](OC(=O)c3ccccc3)[C@]3(O)C[C@H](OC(=O)[C@H](O)[C@@H](NC(=O)c4ccccc4)c4ccccc4)C(C)=C1C3(C)C)[C@]1(OC(C)=O)CO[C@@H]1C[C@@H]2O [Paclitaxel] (first compound max 1 µM, 7x7, partner max 3 µM)"
assay_result = 1

[[record]]
compound = "CC1(C)CCC(CN2CCN(c3ccc(C(=O)NS(=O)(=O)c4ccc(NCC5CCOCC5)c([N+](=O)[O-])c4)c(Oc4cnc5[nH]ccc5c4)c3)CC2)=C(c2ccc(Cl)cc2)C1 [Venetoclax] + C=CCn1c(=O)c2cnc(Nc3ccc(N4CCN(C)CC4)cc3)nc2n1-c1cccc(C(C)(C)O)n1 [AZD1775] (first compound max 1 µM, partner max 1 µM)"
assay_result = 0.942

[[record]]
compound = "CCc1c2c(nc3ccc(O)cc13)-c1cc3c(c(=O)n1C2)COC(=O)[C@]3(O)CC [SN-38] + O=C(c1cc(Cc2n[nH]c(=O)c3ccccc23)ccc1F)N1CCN(C(=O)C2CC2)CC1 [Olaparib] (first compound max 0.3 µM, 7x7, partner max 10 µM)"
assay_result = 0.987

[[record]]
compound = "COc1cccc(OCCCN)c1-c1cc(Nc2cnc(C#N)cn2)n[nH]1 [Prexasertib] + C[C@@H]1COCCN1C2=NC(=NC(=C2)C3(CC3)[S@](=N)(=O)C)C4=C5C=CNC5=NC=C4 [AZD6738] (first compound max 1 µM, 7x7, partner max 10 µM)"
assay_result = 1

[[record]]
compound = "C[C@@H]1COCCN1c1cc(C2([S@](C)(=N)=O)CC2)nc(-c2ccnc3[nH]ccc23)n1 [AZD6738] + Nc1ccn([C@@H]2O[C@H](CO)[C@@H](O)C2(F)F)c(=O)n1 [Gemcitabine] (first compound max 10 µM, 7x7, partner max 0.3 µM)"
assay_result = 1

